Values compiled from the Human Domainome abundance scans (Beltran et al. 2025).

B1: Zinc finger homeobox protein 4, residues 2086 to 2141; numbered along this chain, Q86UP3 (parent)
chain: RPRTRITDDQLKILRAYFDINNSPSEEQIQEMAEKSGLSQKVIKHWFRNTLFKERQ

- Variants of: B1
- assay-overview: abundance fitness (aPCA) (normalised: wild type 0, dead -1); higher = more abundant; growth selection in yeast, the domain comes from the species named
- run-conditions: Homo sapiens
measurement-kind: abundance fitness
Form field (numeric): enter value without unit.

Answered cases to consult:
K44Q | -0.362
R48P | -0.444
S23W | -0.176

So what does the record say about abundance fitness for `L51G` ? -0.134

// same read-out, input: `P24Y` -0.51

Same for `S23L` -0.07
